Values were extracted from the NIST ThermoML archive (doi:10.1021/je700205n).

# Lookup of reported mass density keyed by entry
Conditions: 353.15 K; 20000 kPa; Liquid
# output: bare number, implied unit kg/m3

CCCCCCCn1cc[n+](C)c1.O=S(=O)([N-]S(=O)(=O)C(F)(F)F)C(F)(F)F : 1312
CCn1cc[n+](C)c1.O=S(=O)([N-]S(=O)(=O)C(F)(F)F)C(F)(F)F : 1478

For CCCCCCCCn1cc[n+](C)c1.O=S(=O)([N-]S(=O)(=O)C(F)(F)F)C(F)(F)F the molecule record lists mass density as 1286

Entry under test: CCn1cc[n+](C)c1.F[B-](F)(F)F [1-ethyl-3-methylimidazolium tetrafluoroborate] . Its mass density was 1267
